# test: Aqueous solubility analysis in MOPS buffer
# Type: physicochemical
# recorded conditions: aqueous 10 mM MOPS buffer, thermodynamic from solid; after 24 hours in 10 mM aqueous MOPS buffer, pH 7.2
endpoint label: solubility at 24 h (µg/mL)
# unit: µg/mL | format: bare number

Recall and state the measured solubility at 24 h for C=C(NC(=O)c1csc(C2=N[C@@H]3c4csc(n4)[C@H]4NC(=O)c5csc(n5)[C@H]([C@](C)(O)[C@@H](C)O)NC(=O)C5CSC(=N5)/C(=C/C)NC(=O)[C@H]([C@@H](C)O)NC(=O)c5csc(n5)[C@]3(CC2)NC(=O)[C@H](C)NC(=O)C(=C)NC(=O)[C@H](C)NC(=O)[C@H]([C@@H](C)CC)N[C@@H]2C=Cc3c([C@H](C)O)cc(nc3[C@H]2O)C(=O)O[C@@H]4C)n1)C(=O)NC(=CNC(=O)c1cccc(/C=N/OC2O[C@H](CO)[C@@H](O)[C@H](O)[C@H]2O)c1)C(N)=O (some centres unmarked) [RJS-16] .
11

Values from patent US20220315624A1
